Where these numbers come from: patent US11203600B2

- study.target: GST-hRIPK1 (8-327) (Homo sapiens (Human))
- Sequence (Q13546 8-327): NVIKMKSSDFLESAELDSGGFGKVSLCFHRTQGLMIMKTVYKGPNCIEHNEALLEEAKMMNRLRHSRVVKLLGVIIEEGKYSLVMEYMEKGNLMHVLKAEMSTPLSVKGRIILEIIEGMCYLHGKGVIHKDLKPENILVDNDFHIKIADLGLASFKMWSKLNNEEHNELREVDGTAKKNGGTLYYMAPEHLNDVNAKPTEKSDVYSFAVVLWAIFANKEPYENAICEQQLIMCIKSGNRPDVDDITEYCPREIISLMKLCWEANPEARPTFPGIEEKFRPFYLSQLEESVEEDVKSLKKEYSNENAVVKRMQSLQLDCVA
- assay.details: Fluorescent Polarization Binding (FP Binding) assay, RIPK1
- reported.conditions: 10 nM GST-hRIPK1 (8-327), 5 nM fluorescent-labeled ligand, RT, 30 min, mean of at least two independent experiments
pIC50: −log10 of the molar value.
assay.metric: pIC50

The following molecules have reported results that may help.
CCC(C)(CC#N)C(=O)N1CCOc2c(F)cncc2C1 (stereo not drawn): 6.00 to 7.00
COCCOc1nc(N2CCC(C(=O)N3CCOc4c(F)cncc4C3)CC2)ncc1F: 7.00 to 10.00
CC(C)(CC1CC1)C(=O)N1CCOc2c(C#N)cncc2C1: 6.00 to 7.00
Cc1cnc(N2CCC(F)(C(=O)N3CCOc4c(C#N)cncc4C3)CC2)nc1: 6.00 to 7.00
C[C@@H]1COc2c(C#N)cncc2CN1C(=O)C1(F)CCN(c2ncc(F)cn2)CC1: 7.00 to 10.00
N#Cc1cncc2c1OCCN(C(=O)C1(F)CCN(c3cc4ccccc4cn3)CC1)C2: 7.00 to 10.00
N#Cc1cncc2c1OCCN(C(=O)C1CCN(c3ncc(F)c(OCC(F)F)n3)CC1)C2: 7.00 to 10.00
N#Cc1cncc2c1OCCN(C(=O)C1(F)CCN(c3ncc(Cl)cn3)CC1)C2: 7.00 to 10.00
O=C(C1CCN(c2ncc(F)cn2)CC1)N1CCOc2ccccc2C1: 7.00 to 10.00
COc1nc(N2CCC(OC)(C(=O)N3CCOc4c(C#N)cncc4C3)CC2)nc(C)c1F: < 6.00

Batch request: pIC50 for each of the following molecules.
1. CC(C)(C(=O)N1CCOc2c(F)cccc2C1)C(F)F
2. CC(C)(C(=O)N1CCCc2ccccc2C1)C(F)F
3. N#Cc1cncc2c1OCCN(C(=O)C1(F)CCN(c3ncc(C(F)F)cn3)CC1)C2

["7.00 to 10.00", "6.00 to 7.00", "6.00 to 7.00"]

Hi, could you look up pIC50 for each item in my list?
1. N#Cc1cnc(N2CCC(F)(C(=O)N3CCOc4c(F)cncc4C3)CC2)nc1
2. CNc1nc(N2CCC(F)(C(=O)N3CCOc4c(C#N)cncc4C3)CC2)ncc1F
3. CC(C)(C(=O)N1CCOc2cccc(F)c2C1)C(F)F
4. CC(C)(CC(F)(F)F)C(=O)N1CCOc2c(C#N)cncc2C1

6.00 to 7.00
6.00 to 7.00
7.00 to 10.00
7.00 to 10.00

Form: molecule = CC1(C(=O)N2CCOc3c(C#N)cncc3C2)CC1(F)F (stereo not drawn) ; pIC50 = 6.00 to 7.00
